Recorded below: IC50, system thrombin (Bos taurus, UniProt P00735).
Structures can show the parent of a compound that is named as a salt.
Give bare numbers, in µM.

- COMPOUND: "CCn1c(CC(C(=O)O)c2ccc(O[C@H]3CCN(C(C)=N)C3)cc2)cc2ccc(C(=N)N)cc21 (some centres unmarked) [Inventive Example 105, Dihydrochloride]"
  IC50, µM: 6.8
- COMPOUND: "CC(=N)N1CC[C@H](Oc2ccc(CC(C(=O)O)c3cc4cc(C(=N)N)ccc4s3)cc2)C1 (some centres unmarked) [Inventive Example 106, Dihydrochloride]"
  IC50, µM: 100
- COMPOUND: "CC(=N)N1CCC[C@H]1COc1ccc(C(Cc2cc3cc(C(=N)N)ccc3s2)C(=O)O)cc1.Cl.Cl (single isomer, unassigned; (+)) [Inventive Example 41, Dihydrochloride]"
  IC50, µM: 9
- COMPOUND: "CCn1c(CC(C(=O)O)c2ccc(OC3CCN(C(C)=N)CC3)cc2)cc2ccc(C(=N)N)cc21.Cl.Cl (centres unmarked) [Inventive Example 98, Dihydrochloride]"
  IC50, µM: 2.5
- COMPOUND: "CCCCCC(=N)N1CC[C@H](Oc2ccc(C(Cc3cc4cc(C(=N)N)ccc4s3)C(=O)O)cc2)C1.Cl.Cl (some centres unmarked) [Inventive Example 94, Dihydrochloride]"
  IC50, µM: 370

Provide the reported IC50 of each entry below, same order.
1. CC(=N)N1CCC(Oc2ccc(C(Cc3cc4cc(C(=N)N)ccc4s3)C(=O)O)cc2)CC1.Cl.Cl (centres unmarked) [Inventive Example 97, Dihydrochloride]
2. CC(=N)N1CC[C@H](Oc2ccc(C(CC(=O)O)Cc3cc4cc(C(=N)N)ccc4s3)cc2)C1.Cl.Cl (some centres unmarked) [Inventive Example 104, Dihydrochloride]
3. Cl.Cl.N=C(N)c1ccc2cc(CC(C(=O)O)c3ccc(O[C@H]4CCNC4)cc3)[nH]c2c1 (single isomer, unassigned; (+)) [Inventive Example 48, Dihydrochloride]
4. CC(=N)N1CCC(Oc2ccc(C(Cc3ccc4ccc(C(=N)N)cc4c3)C(=O)O)cc2)CC1.Cl.Cl (centres unmarked) [Inventive Example 108, Dihydrochloride]
5. CC(=N)N1CCC[C@H]1COc1ccc(C(Cc2cc3cc(C(=N)N)ccc3s2)C(=O)O)cc1.Cl.Cl (some centres unmarked) [Inventive Example 96, Dihydrochloride]

1. 170
2. 230
3. 50
4. 250
5. 29

Entry source: patent US5866577A
